Data origin, for the record: patent US9115092B2

Listed below: pIC50 values for each entry.
Biological target: PI3Kα (wild-type), P110/P85α (Homo sapiens, UniProt P42336)
Sequence (P42336 whole entry): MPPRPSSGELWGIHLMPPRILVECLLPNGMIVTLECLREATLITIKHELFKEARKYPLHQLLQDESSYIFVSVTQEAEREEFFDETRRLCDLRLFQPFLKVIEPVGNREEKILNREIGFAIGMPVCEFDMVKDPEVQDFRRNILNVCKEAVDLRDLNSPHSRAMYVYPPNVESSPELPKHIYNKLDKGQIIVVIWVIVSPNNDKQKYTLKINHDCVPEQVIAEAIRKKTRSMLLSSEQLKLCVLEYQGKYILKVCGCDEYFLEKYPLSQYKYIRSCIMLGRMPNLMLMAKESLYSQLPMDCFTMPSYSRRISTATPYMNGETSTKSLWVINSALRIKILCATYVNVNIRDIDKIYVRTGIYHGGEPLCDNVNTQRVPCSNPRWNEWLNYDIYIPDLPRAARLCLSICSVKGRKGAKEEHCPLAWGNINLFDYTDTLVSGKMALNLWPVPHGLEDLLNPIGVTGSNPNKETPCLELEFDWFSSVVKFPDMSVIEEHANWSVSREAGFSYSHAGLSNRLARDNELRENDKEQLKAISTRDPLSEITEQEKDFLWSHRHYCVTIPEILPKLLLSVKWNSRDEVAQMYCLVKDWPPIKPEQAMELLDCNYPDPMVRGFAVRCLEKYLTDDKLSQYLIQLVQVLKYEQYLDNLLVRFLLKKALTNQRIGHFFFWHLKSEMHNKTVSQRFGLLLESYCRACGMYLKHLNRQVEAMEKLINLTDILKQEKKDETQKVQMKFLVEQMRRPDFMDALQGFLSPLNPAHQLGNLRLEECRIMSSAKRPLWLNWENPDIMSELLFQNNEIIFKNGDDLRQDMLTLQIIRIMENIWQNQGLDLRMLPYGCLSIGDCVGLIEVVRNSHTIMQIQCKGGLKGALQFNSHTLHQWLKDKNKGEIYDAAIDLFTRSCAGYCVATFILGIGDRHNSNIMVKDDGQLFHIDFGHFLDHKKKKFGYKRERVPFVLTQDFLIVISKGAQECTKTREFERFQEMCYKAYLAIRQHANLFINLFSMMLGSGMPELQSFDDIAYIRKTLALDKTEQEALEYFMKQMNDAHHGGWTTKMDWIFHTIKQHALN
Sequence (P27986 whole entry partner): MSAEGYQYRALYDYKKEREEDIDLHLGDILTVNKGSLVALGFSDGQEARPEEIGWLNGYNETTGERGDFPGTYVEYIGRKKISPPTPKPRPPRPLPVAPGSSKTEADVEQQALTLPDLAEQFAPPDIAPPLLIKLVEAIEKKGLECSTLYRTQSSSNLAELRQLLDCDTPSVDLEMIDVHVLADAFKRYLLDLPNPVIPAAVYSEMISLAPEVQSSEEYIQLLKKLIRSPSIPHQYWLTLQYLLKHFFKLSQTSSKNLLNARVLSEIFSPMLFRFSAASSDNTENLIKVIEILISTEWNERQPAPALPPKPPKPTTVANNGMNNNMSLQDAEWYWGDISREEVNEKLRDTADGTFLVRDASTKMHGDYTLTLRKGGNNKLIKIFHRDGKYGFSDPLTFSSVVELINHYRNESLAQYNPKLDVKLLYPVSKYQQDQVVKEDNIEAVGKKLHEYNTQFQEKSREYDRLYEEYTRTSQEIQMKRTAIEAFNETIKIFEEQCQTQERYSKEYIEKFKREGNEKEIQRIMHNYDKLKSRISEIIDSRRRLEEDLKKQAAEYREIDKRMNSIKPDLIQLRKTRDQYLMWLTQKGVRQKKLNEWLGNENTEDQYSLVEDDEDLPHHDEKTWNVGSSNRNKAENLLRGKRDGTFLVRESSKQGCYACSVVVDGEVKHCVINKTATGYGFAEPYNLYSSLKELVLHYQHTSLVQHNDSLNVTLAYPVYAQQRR
Experiment: PI3 Kinase TR-FRET assay, PI3Kα (wild-type)
pIC50: −log10 of the molar value.

QUERY: Give the measured pIC50 of CN(C)C(=O)c1ccc(NC(=O)Nc2ccc(-c3nc(N4CCOCC4)c4cc(F)c(-c5cnn(C)c5)cc4n3)cc2F)cc1 .
RESULT: 6.70 to 7.30

QUERY: Another: COc1ncc(-c2ccc3c(N4CCOCC4)nc(-c4ccc(NC(=O)Nc5ccc(C(=O)N(C)C)cc5)cc4)nc3c2)cn1
RESULT: > 7.30

QUERY: Another: Cc1ncccc1-c1ccc2c(N3CCOCC3)nc(-c3ccc(NC(=O)Nc4ccc(C(=O)N(C)C)cc4)cc3)nc2c1
RESULT: > 7.30

QUERY: Another: COc1ncccc1-c1ccc2c(N3CCOCC3)nc(-c3ccc(NC(=O)Nc4ccc(C(=O)N(C)C)cc4)cc3F)nc2c1
RESULT: 6.70 to 7.30

QUERY: Another: CN(C)C(=O)c1ccc(NC(=O)Nc2ccc(-c3nc(N4CCOCC4)c4ccc(-c5cccnc5F)cc4n3)cc2F)cc1
RESULT: > 7.30

QUERY: Another: CN(C)C(=O)c1ccc(NC(=O)Nc2ccc(-c3nc(N4CCOCC4)c4ccc(-c5ccc(N)nc5)cc4n3)cc2)c(F)c1
RESULT: 6.70 to 7.30

Note: attention shifts to another entry.
QUERY: Give the measured pIC50 of CN(C)C(=O)c1ccc(NC(=O)Nc2ccc(-c3nc(N4CCOCC4)c4ccc(-c5ccc(CO)o5)cc4n3)cc2)c(F)c1 [Example 219] .
RESULT: 6.70 to 7.30
